# target_or_system: 5‐HT2A receptor (Rattus norvegicus)
# Sequence (P14842 whole entry): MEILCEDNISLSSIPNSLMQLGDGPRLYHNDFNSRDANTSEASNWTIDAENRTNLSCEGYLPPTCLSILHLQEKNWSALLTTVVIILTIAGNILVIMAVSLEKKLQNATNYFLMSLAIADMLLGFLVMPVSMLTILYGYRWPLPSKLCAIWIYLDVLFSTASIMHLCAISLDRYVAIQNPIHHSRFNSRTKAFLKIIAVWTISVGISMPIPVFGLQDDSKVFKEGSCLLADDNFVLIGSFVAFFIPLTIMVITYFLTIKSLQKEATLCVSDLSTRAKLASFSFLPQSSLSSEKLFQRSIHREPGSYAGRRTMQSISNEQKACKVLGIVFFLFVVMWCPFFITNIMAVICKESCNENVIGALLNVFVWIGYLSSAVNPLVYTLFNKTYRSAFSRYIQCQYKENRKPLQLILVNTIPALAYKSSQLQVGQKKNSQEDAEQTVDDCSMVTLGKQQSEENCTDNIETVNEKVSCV
# experiment_summary: Inhibition of 5‐HT‐evoked contractions in isolated rat ileum
# Set-up: segments (1–1.5 cm) of ileum were removed, flushed of luminal contents, and placed in Krebs solution; from tissue; host or cells: isolated rat (Sprague-Dawley) ileum segments
# condition_summary: 5‐HT 10^−5 M; compounds 10^−8–10^−5 M; read-out: EMAX, maximal inhibitory effect on 5‐HT‐induced contractions in the rat ileum
measurement_label: Emax (%)
Reply numerically in %, unit not repeated.

Query: Given the entry O=C(NCCCN1CCN(c2cccc(C3=NCCS3)c2)CC1)C1CC2C=CC1C2 (stereo not drawn) , report its measured Emax.
Response: 25

Query: Same lookup for "O=C(NCCCN1CCN(c2cccc(C3=NCCS3)c2)CC1)c1ccccn1" , please.
Response: 25.4

Query: Same lookup for O=C1C2C3C=CC(C3)C2C(=O)N1OCCCN1CCN(c2cccc(C3=NCCS3)c2)CC1 (stereo not drawn) , please.
Response: 21.4

Query: Same lookup for O=C1C2C3C=CC(O3)C2C(=O)N1OCCCN1CCN(c2cccc(C3=NCCS3)c2)CC1 (stereo not drawn) , please.
Response: 28.7

Query: Same lookup for O=C(NCCCN1CCN(c2ccccc2C2=NCCS2)CC1)C1CC2C=CC1C2 (stereo not drawn) , please.
Response: 39.1

Query: Same lookup for O=C(NCCCN1CCN(c2ccc(C3=NCCS3)cc2)CC1)C1CC2C=CC1C2 (stereo not drawn) , please.
Response: 32.8
